ASSAY_PROCEDURE: Elimination rate constant (K10) in Sprague-Dawley rat at 20 mg/kg, po measured after 12 hrs by UPLC-QTOF/MS analysis
Type: ADME, organism-based
MEASUREMENT_CONDITIONS: in vivo
EXPERIMENTAL_READOUT: k el at 12 h (s⁻¹)
Answers are plain numbers, in s⁻¹.

k el at 12 h reading for "CC(C)c1cccc(NC(=O)N2CCC[C@H]2c2ncc(-c3ccccc3)s2)c1" : 0.000315

###

MEASURED_ON: Transient receptor potential cation channel subfamily A member 1 (Homo sapiens)
Sequence (O75762 whole entry): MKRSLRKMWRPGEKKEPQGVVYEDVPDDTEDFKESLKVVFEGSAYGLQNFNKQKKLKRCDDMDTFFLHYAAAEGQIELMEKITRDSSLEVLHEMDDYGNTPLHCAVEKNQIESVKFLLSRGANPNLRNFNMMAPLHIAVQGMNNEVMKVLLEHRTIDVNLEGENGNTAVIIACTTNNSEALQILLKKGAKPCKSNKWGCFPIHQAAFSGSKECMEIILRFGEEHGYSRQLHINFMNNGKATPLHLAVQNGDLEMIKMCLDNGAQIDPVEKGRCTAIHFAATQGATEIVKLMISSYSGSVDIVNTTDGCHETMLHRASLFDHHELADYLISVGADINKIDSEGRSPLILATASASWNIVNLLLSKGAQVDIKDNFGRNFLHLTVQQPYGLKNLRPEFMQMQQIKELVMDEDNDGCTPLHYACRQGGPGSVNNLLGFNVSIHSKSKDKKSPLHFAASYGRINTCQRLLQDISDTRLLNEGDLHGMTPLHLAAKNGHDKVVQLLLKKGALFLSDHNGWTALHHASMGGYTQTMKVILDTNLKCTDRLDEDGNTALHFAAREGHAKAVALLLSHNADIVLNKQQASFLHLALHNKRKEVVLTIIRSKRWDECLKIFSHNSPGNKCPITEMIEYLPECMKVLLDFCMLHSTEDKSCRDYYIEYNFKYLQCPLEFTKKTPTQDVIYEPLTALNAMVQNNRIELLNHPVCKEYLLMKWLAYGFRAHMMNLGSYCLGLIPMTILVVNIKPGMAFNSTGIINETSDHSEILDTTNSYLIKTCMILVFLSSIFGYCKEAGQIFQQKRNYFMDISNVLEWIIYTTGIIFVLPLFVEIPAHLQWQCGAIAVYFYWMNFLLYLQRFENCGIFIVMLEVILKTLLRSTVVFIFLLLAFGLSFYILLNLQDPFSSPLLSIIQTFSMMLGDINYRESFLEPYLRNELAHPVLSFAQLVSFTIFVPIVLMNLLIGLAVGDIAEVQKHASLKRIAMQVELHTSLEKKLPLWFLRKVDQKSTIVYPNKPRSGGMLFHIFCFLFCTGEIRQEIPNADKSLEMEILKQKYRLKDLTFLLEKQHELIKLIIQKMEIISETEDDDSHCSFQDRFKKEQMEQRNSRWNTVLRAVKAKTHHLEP
ASSAY_PROCEDURE: Antagonist activity against human TRPA1 expressed in HEK293 cells assessed as inhibition of AITC-induced intracellular calcium accumulation incubated for 30 mins by FLIPR assay
pIC50: −log10 of the molar value.
EXPERIMENTAL_READOUT: pIC50

Fill in: Transient receptor potential cation channel subfamily A member 1 (Homo sapiens) pIC50 for "CC(C)c1cccc(NC(=O)N2CCC[C@H]2c2ncc(-c3ccccc3)s2)c1" = < 4.00

###

ASSAY_PROCEDURE: Clearance in Sprague-Dawley rat at 10 mg/kg, iv measured after 12 hrs by UPLC-QTOF/MS analysis
Assay type: ADME, organism-based
MEASUREMENT_CONDITIONS: in vivo
EXPERIMENTAL_READOUT: clearance
The reply should read as a number followed by its unit.

Briefly, clearance measured for "CC(C)c1cccc(NC(=O)N2CCC[C@H]2c2ncc(-c3ccccc3)s2)c1" : 400 mL/min/kg

###

ASSAY_PROCEDURE: Drug concentration in rat plasma at 10 mg/kg, iv measured after 0.5 hrs by HPLC analysis
Format: ADME, organism-based
EXPERIMENTAL_READOUT: concentration at 0.5 h (ng/g)
One number for each entry, in ng/g.

So, "CC(C)c1cccc(NC(=O)N2CCC[C@H]2c2ncc(-c3ccccc3)s2)c1" ? Its concentration at 0.5 h was 1400

###

ASSAY_PROCEDURE: Elimination rate constant (K10) in Sprague-Dawley rat at 10 mg/kg, iv measured after 12 hrs by UPLC-QTOF/MS analysis
Type: ADME, organism-based
MEASUREMENT_CONDITIONS: in vivo
EXPERIMENTAL_READOUT: k el at 12 h (s⁻¹)
One number for each entry, in s⁻¹.

Per the records, this compound ( "CC(C)c1cccc(NC(=O)N2CCC[C@H]2c2ncc(-c3ccccc3)s2)c1" ) has k el at 12 h equal to 0.00335

###

MEASURED_ON: Transient receptor potential cation channel subfamily M member 8 (Homo sapiens, UniProt Q7Z2W7)
Sequence (Q7Z2W7 whole entry): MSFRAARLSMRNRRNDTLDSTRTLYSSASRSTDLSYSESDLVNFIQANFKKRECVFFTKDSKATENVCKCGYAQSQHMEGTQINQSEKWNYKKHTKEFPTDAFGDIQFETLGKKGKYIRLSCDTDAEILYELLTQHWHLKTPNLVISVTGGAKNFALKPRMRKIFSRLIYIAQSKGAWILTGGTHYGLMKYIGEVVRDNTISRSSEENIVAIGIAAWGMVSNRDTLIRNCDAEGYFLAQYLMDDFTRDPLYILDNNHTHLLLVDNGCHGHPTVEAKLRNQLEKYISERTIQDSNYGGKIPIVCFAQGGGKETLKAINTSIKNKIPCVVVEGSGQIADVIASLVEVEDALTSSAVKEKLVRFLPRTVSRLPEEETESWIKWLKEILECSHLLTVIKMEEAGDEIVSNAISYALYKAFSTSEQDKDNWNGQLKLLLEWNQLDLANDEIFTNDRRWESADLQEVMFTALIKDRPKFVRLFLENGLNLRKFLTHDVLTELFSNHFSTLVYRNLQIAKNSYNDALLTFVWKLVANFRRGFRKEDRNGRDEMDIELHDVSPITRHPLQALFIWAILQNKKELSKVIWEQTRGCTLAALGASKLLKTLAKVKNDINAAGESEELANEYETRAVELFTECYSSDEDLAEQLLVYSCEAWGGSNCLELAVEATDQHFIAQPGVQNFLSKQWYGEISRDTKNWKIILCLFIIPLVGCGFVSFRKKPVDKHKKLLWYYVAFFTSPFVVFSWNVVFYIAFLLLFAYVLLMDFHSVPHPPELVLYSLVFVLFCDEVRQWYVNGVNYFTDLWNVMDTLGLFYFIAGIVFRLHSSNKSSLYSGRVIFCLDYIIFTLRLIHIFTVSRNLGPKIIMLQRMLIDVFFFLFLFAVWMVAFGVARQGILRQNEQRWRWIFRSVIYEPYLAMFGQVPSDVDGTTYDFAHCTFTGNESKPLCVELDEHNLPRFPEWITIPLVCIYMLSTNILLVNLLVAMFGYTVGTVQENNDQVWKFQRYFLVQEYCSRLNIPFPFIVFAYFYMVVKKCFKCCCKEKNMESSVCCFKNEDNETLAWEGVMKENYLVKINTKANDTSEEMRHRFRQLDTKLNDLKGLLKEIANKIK
ASSAY_PROCEDURE: Antagonist activity against human TRPM8 expressed in HEK293 cells assessed as inhibition of […]-gated currents by whole cell patch clamp electrophysiology
EXPERIMENTAL_READOUT: pIC50
Numbers only, as −log10 of the molar value.

Memo: "O=C(Nc1ccccc1Br)N[C@@H]1CCN(c2ccc(C(F)(F)F)cn2)C1" , reported pIC50: 5.80

###

ASSAY_PROCEDURE: Half life in Sprague-Dawley rat at 10 mg/kg, iv measured after 12 hrs by UPLC-QTOF/MS analysis
Format: ADME, organism-based
MEASUREMENT_CONDITIONS: in vivo
EXPERIMENTAL_READOUT: half-life (min)
Numbers only, in min.

Noted for "CC(C)c1cccc(NC(=O)N2CCC[C@H]2c2ncc(-c3ccccc3)s2)c1" : its half-life reads 6.36

###

ASSAY_PROCEDURE: Volume of distribution in Sprague-Dawley rat at 20 mg/kg, po measured after 12 hrs post dose by UPLC-QTOF/MS analysis
Assay type: ADME, organism-based
MEASUREMENT_CONDITIONS: in vivo
EXPERIMENTAL_READOUT: Vd (L/kg)
Give bare numbers, in L/kg.

Recorded Vd (compound "CC(C)c1cccc(NC(=O)N2CCC[C@H]2c2ncc(-c3ccccc3)s2)c1" ): 16

###

MEASURED_ON: UniProt:Q8NET8
Sequence (Q8NET8 whole entry): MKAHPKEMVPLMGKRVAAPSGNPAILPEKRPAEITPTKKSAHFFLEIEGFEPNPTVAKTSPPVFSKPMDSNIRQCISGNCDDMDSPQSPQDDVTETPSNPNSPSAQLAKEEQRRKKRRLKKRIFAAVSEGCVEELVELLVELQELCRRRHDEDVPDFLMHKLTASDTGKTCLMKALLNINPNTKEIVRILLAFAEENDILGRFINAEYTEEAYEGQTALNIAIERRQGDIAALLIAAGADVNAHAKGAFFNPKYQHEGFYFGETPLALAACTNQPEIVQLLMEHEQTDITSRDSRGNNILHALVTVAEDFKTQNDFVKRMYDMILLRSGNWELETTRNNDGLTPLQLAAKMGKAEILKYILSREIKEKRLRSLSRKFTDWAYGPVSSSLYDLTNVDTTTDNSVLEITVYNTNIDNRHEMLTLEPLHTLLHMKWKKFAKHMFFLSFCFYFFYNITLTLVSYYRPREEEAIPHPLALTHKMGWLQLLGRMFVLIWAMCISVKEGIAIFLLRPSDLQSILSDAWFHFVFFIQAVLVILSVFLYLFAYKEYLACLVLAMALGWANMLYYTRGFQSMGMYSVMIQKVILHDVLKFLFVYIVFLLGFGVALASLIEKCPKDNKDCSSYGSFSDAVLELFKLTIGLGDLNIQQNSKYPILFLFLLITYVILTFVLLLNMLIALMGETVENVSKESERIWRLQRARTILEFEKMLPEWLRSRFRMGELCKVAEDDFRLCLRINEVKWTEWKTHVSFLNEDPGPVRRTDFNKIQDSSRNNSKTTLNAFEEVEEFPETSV
ASSAY_PROCEDURE: Antagonist activity against human TRPV3 expressed in HEK293 cells assessed as inhibition of 2-APb induced intracellular calcium accumulation incubated for 30 mins by FLIPR assay
pIC50: −log10 of the molar value.
EXPERIMENTAL_READOUT: pIC50

The measured pIC50 associated with "CC(C)c1cccc(NC(=O)N2CCC[C@H]2c2ncc(-c3ccccc3)s2)c1" reads < 4.00

###

MEASURED_ON: Transient receptor potential cation channel subfamily V member 1 (Homo sapiens, UniProt Q8NER1)
Sequence (Q8NER1 whole entry): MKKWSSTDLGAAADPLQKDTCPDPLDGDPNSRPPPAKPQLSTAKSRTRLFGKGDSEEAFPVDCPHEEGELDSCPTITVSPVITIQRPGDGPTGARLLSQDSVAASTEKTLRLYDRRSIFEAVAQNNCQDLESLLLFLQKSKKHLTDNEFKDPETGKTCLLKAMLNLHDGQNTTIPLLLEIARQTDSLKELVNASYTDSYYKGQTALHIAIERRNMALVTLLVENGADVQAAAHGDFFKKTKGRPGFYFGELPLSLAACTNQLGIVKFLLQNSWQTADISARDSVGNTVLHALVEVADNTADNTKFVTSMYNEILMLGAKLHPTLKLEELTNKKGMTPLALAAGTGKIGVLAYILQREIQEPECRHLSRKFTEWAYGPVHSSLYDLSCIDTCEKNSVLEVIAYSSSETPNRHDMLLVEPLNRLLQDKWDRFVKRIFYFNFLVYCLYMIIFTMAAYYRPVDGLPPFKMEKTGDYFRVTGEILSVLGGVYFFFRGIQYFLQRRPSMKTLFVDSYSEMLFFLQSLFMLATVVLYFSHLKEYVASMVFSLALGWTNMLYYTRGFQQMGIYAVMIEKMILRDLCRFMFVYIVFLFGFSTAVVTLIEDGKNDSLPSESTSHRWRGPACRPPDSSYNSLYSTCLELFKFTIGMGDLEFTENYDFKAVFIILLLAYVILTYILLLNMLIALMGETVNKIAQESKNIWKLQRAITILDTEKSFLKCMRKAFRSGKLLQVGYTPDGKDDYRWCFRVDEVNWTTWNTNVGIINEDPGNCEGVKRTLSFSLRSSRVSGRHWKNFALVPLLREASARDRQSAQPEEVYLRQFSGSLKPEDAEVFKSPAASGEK
ASSAY_PROCEDURE: Antagonist activity at human TRPV1 expressed in CHO cells assessed as inhibition of capsaicin-induced Ca2+ influx incubated for 30 mins by FLIPR method
I'd appreciate it if you marked entries Condition met when IC50 is lower than 20 nM and Condition not met when it is not.

- SMILES_NOTATION: "O=C(Nc1ccccc1[N+](=O)[O-])N1CCC[C@H]1c1ncc(-c2ccccc2)s1"
  GROUP: "Condition met"
- SMILES_NOTATION: "Cc1ccc(NC(=O)N2CCC[C@H]2c2ncc(-c3ccccc3)s2)c([N+](=O)[O-])c1"
  GROUP: "Condition not met"
- SMILES_NOTATION: "Cc1ccc(C)c(NC(=O)N2CCC[C@H]2c2nc(-c3ccccc3)cs2)c1"
  GROUP: "Condition not met"

Decide: IC50 of "CC(C)c1ccccc1NC(=O)N1CCC[C@H]1c1ncc(-c2ccccc2)s1" strictly below 20 nM?
Condition met

Consider "O=C(Nc1ccc(F)cc1)N1CCC[C@H]1c1nc(-c2ccc(F)cc2)cs1" . Does its IC50 lie strictly below 20 nM?
Condition not met

Here's an entry: "O=C(Nc1cccc2cnccc12)N1CCC[C@H]1c1nc(-c2ccc(F)cc2)cs1" . Is its IC50 below 20 nM?
Condition not met

###

ASSAY_PROCEDURE: Tmax in Sprague-Dawley rat at 20 mg/kg, po measured after 12 hrs by UPLC-QTOF/MS analysis
Assay type: ADME, organism-based
MEASUREMENT_CONDITIONS: in vivo
EXPERIMENTAL_READOUT: Tmax (min)
Give bare numbers, in min.

The compound identified as "CC(C)c1cccc(NC(=O)N2CCC[C@H]2c2ncc(-c3ccccc3)s2)c1" registered its Tmax at 42.7

###

ASSAY_PROCEDURE: MRT in Sprague-Dawley rat at 20 mg/kg, po measured after 12 hrs by UPLC-QTOF/MS analysis
Type: ADME, organism-based
MEASUREMENT_CONDITIONS: in vivo
EXPERIMENTAL_READOUT: MRT (h)
Give bare numbers, in h.

The reported MRT of the compound "CC(C)c1cccc(NC(=O)N2CCC[C@H]2c2ncc(-c3ccccc3)s2)c1" was 1.43

###

ASSAY_PROCEDURE: Aqueous solubility of compound at pH 7.4 incubated for 2 hrs by LC-UV/MS analysis
Type: physicochemical
MEASUREMENT_CONDITIONS: buffer
EXPERIMENTAL_READOUT: solubility at 2 h (µg/mL)
Answers are plain numbers, in µg/mL.

For this compound ( "CC(C)c1cccc(NC(=O)N2CCC[C@H]2c2ncc(-c3ccccc3)s2)c1" ), measured solubility at 2 h is 26

###

MEASURED_ON: Transient receptor potential cation channel subfamily V member 1 (Homo sapiens, UniProt Q8NER1)
ASSAY_PROCEDURE: Antagonist activity at human TRPV1 expressed in CHO cells assessed as inhibition of capsaicin-induced Ca2+ influx incubated for 30 mins by FLIPR method
// classify: if (IC50 < 10 nM) fulfilled else not fulfilled

- SMILES_NOTATION: "O=C(Nc1ccc(F)cc1)N1CCC[C@H]1c1nc(-c2ccccc2)cs1"
  GROUP: "not fulfilled"
- SMILES_NOTATION: "O=C(Nc1cccc2cnccc12)N1CCC[C@H]1c1nc(-c2cccc(F)c2)cs1"
  GROUP: "not fulfilled"

Now let's try a different one.
Lab note: confirm whether the reported IC50 for this compound is below 10 nM, equality not counting. compound: "O=C(Nc1ccc(Cl)cc1)N1CCC[C@H]1c1nc(-c2ccc(F)cc2)cs1"
not fulfilled

###

Give measured IC50 for each item. Keep answers brief.
MEASURED_ON: Transient receptor potential cation channel subfamily V member 1 (Homo sapiens)
ASSAY_PROCEDURE: Antagonist activity at human TRPV1 expressed in CHO cells assessed as inhibition of capsaicin-induced Ca2+ influx incubated for 30 mins by FLIPR method

- COMPOUND: "CC(C)c1cccc(NC(=O)N2CCC[C@H]2c2ncc(-c3ccccc3)s2)c1"
  MEASURED: "2.66 nM"
- COMPOUND: "COc1ccccc1NC(=O)N1CCC[C@H]1c1nc(-c2ccc(F)cc2)cs1"
  MEASURED: "5.71 nM"
- COMPOUND: "O=C(Nc1ccccc1Br)N[C@@H]1CCN(c2ccc(C(F)(F)F)cn2)C1 [SB-705498]"
  MEASURED: "9.24 nM"

Turning now to a further compound:
Given item "O=C(Nc1cccc2cnccc12)N1CCC[C@H]1c1nc(-c2ccccc2)cs1" , the value recorded as its IC50 is 67.6 nM

Source of measurements: ChEMBL document CHEMBL5154788
